- experimentalSystem: UniProt P0DTD1
- testSummary: Inhibition of recombinant SARS-CoV-2 3CLpro expressed in Escherichia coli NiCo21(DE3) assessed as residual activity at 500 uM using DABCYL-KTSAVLQSGFRKME-EDANS as substrate preincubated for 30 mins followed by substrate addition and measured by FRET assay relative to control
metricName: Activity (%)

recordSmiles: Nc1nnc(C(F)(F)F)s1
experimentalSystem: UniProt P0DTD1
metricName: Activity
unit: %
value: 66.8
//
recordSmiles: COC(=O)c1cnc(Br)s1
experimentalSystem: UniProt P0DTD1
metricName: Activity
unit: %
value: 100
//
recordSmiles: Nc1nnc(C2CC2)s1
experimentalSystem: UniProt P0DTD1
metricName: Activity
unit: %
value: 34.2
//
recordSmiles: O=C(O)c1scnc1Br
experimentalSystem: UniProt P0DTD1
metricName: Activity
unit: %
value: 135
//
recordSmiles: CCOC(=O)Cc1csc(N)n1
experimentalSystem: UniProt P0DTD1
metricName: Activity
unit: %
value: 103
//
recordSmiles: COC(=O)c1csc(Br)n1
experimentalSystem: UniProt P0DTD1
metricName: Activity
unit: %
value: 73.7
//
recordSmiles: O=S(=O)(Cc1ccccc1)Nc1nccs1
experimentalSystem: UniProt P0DTD1
metricName: Activity
unit: %
value: 20
//
recordSmiles: N#Cc1cnc(Br)s1
experimentalSystem: UniProt P0DTD1
metricName: Activity
unit: %
value: 101
//
recordSmiles: Cc1cnc(N)s1
experimentalSystem: UniProt P0DTD1
metricName: Activity
unit: %
value: 88
//
recordSmiles: Cc1csc(N)n1
experimentalSystem: UniProt P0DTD1
metricName: Activity
unit: %
value: 96.7
//
recordSmiles: N#Cc1cnc(NC(=O)CC(=O)O)s1
experimentalSystem: UniProt P0DTD1
metricName: Activity
unit: %
value: 93.5
//
recordSmiles: CNc1nnc(C(F)(F)F)s1
experimentalSystem: UniProt P0DTD1
metricName: Activity
unit: %
value: 147
//
recordSmiles: CCOC(=O)c1sc(Br)nc1C
experimentalSystem: UniProt P0DTD1
metricName: Activity
unit: %
value: 91.6
//
recordSmiles: Nc1nc(-c2ccncc2)cs1
experimentalSystem: UniProt P0DTD1
metricName: Activity
unit: %
value: 91.9
//
recordSmiles: O=C(O)c1csc(-c2ccc(F)cc2)n1
experimentalSystem: UniProt P0DTD1
metricName: Activity
unit: %
value: 82.6
//
recordSmiles: N#Cc1cnc(NC(=O)C(=O)O)s1
experimentalSystem: UniProt P0DTD1
metricName: Activity
unit: %
value: 104
//
recordSmiles: N#Cc1cnc(N)s1
experimentalSystem: UniProt P0DTD1
metricName: Activity
unit: %
value: 1.1
//
recordSmiles: Brc1cnc(Br)s1
experimentalSystem: UniProt P0DTD1
metricName: Activity
unit: %
value: 17.1
//
recordSmiles: O=C(O)c1nc(Br)cs1
experimentalSystem: UniProt P0DTD1
metricName: Activity
unit: %
value: 88.3
//
recordSmiles: Clc1nccs1
experimentalSystem: UniProt P0DTD1
metricName: Activity
unit: %
value: 23.1
//
recordSmiles: COC(=O)CC(=O)Nc1ncc(Br)s1
experimentalSystem: UniProt P0DTD1
metricName: Activity
unit: %
value: 95.3
//
recordSmiles: Nc1nc(CC(=O)O)cs1
experimentalSystem: UniProt P0DTD1
metricName: Activity
unit: %
value: 105
//
recordSmiles: O=C(O)c1csc(Nc2cccc3ncccc23)n1
experimentalSystem: UniProt P0DTD1
metricName: Activity
unit: %
value: 42.7
//
recordSmiles: Cc1cnc(Br)s1
experimentalSystem: UniProt P0DTD1
metricName: Activity
unit: %
value: 19.8
//
recordSmiles: O=C(O)C(=O)Nc1ncc(Br)s1
experimentalSystem: UniProt P0DTD1
metricName: Activity
unit: %
value: 62.2
//
recordSmiles: CC(=O)c1nc(C)cs1
experimentalSystem: UniProt P0DTD1
metricName: Activity
unit: %
value: 106
//
recordSmiles: CCOC(=O)c1csc(Br)n1
experimentalSystem: UniProt P0DTD1
metricName: Activity
unit: %
value: 71.7
//
recordSmiles: O=C(O)Cc1csc(Br)n1
experimentalSystem: UniProt P0DTD1
metricName: Activity
unit: %
value: 77.1
//
recordSmiles: Nc1nc(C(=O)O)cs1
experimentalSystem: UniProt P0DTD1
metricName: Activity
unit: %
value: 14.2
//
recordSmiles: Fc1ccc(-c2csc(Br)n2)cc1F
experimentalSystem: UniProt P0DTD1
metricName: Activity
unit: %
value: 85.1
//
recordSmiles: COC(=O)CC(=O)Nc1ncc(C#N)s1
experimentalSystem: UniProt P0DTD1
metricName: Activity
unit: %
value: -4.7
//
recordSmiles: Brc1nncs1
experimentalSystem: UniProt P0DTD1
metricName: Activity
unit: %
value: 5.1

// data source = ChEMBL document CHEMBL5104216
